Tested on: HCV replicon 1AY93H
assay_details: Cell-based HCV Replicon Assay A, replicon 1AY93H
measurement_conditions: replicon 1AY93H, read-out: 1A Y93H IC50
Recorded pIC50, one value per entry.
Value format note: pIC50 is -log10 of concentration (mol/L); just state the number.

Sample answers from the record:
{"columns": ["molecule", "reported_endpoint", "result"],
 "data": [
  ["COC(=O)NC(C(=O)N1CCCC1c1ncc(-c2cc(F)c3c(c2)OC(c2cnc(C4CCCC4)s2)n2c-3cc3cc(-c4cnc(C5CC6CC6N5C(=O)C(NC(=O)OC)C(C)C)[nH]4)ccc32)[nH]1)C(C)C (single isomer, unassigned) [Compound 320]", "pIC50", 10.44],
  ["COC(=O)N[C@H](C(=O)N1CCC[C@H]1c1ncc(-c2cc(F)c3c(c2)OC(c2cnc(CC(C)(C)C)s2)n2c-3cc3cc(-c4cnc([C@@H]5CCCN5C(=O)[C@@H](NC(=O)OC)C(C)C)[nH]4)ccc32)[nH]1)C(C)C (single isomer, unassigned) [Compound 523]", "pIC50", 9.89],
  ["COC(=O)N[C@H](C(=O)N1CCC[C@H]1c1ncc(-c2cc(F)c3c(c2)OC(c2cnc(C4CC4)s2)n2c-3cc3cc(-c4cnc([C@@H]5CC6(C)CC6N5C(=O)[C@@H](NC(=O)OC)C(C)C)[nH]4)ccc32)[nH]1)C(C)C (single isomer, unassigned) [Compound 520]", "pIC50", 8.57],
  ["COC(=O)N[C@H](C(=O)N1CCC[C@H]1c1ncc(-c2cc(F)c3c(c2)OC(c2cnc(CC(C)C)s2)n2c-3cc3cc(-c4cnc([C@@H]5CCCN5C(=O)[C@@H](NC(=O)OC)C(C)C)[nH]4)ccc32)[nH]1)C(C)C (single isomer, unassigned)", "pIC50", 10.92],
  ["COC(=O)NC(C(=O)N1[C@@H]2C[C@@H]2C[C@H]1c1ncc(-c2ccc3c(c2)cc2n3C(c3cnc(CC(C)C)s3)Oc3cc(-c4cnc([C@@H]5CCCN5C(=O)[C@@H](NC(=O)OC)C(C)C)[nH]4)cc(F)c3-2)[nH]1)C1CCOC(C)(C)C1 (single isomer, unassigned) [Compound 436]", "pIC50", 9.90]
]}

Data request: # returns recorded pIC50 (system: HCV replicon 1AY93H) for COC(=O)N[C@H](C(=O)N1CCC[C@H]1c1ncc(-c2cc(F)c3c(c2)OC(c2cnc(C4CC4)s2)n2c-3cc3cc(-c4cnc([C@@H]5CC6(C)CC6N5C(=O)[C@@H](NC(=O)OC)C(C)C)[nH]4)ccc32)[nH]1)C(C)C (single isomer, unassigned) [Compound 519]
Data returned: 9.17

Data request: GET /values?readout=pIC50&system=HCV replicon 1AY93H&item= COC(=O)N[C@H](C(=O)N1CCC[C@H]1c1ncc(-c2cc(F)c3c(c2)OC(c2cnc(CC(C)(C)C)s2)n2c-3cc3cc(-c4cnc([C@@H]5CCCN5C(=O)[C@@H](NC(=O)OC)C(C)C)[nH]4)ccc32)[nH]1)C(C)C (single isomer, unassigned) [Compound 522]
Data returned: 10.96

Data request: Under HCV replicon 1AY93H: pIC50 value of COC(=O)N[C@H](C(=O)N1CCC[C@H]1c1ncc(-c2cc(F)c3c(c2)OC(c2cnc(CC4CC4)s2)n2c-3cc3cc(-c4cnc([C@@H]5CCCN5C(=O)[C@@H](NC(=O)OC)C(C)C)[nH]4)ccc32)[nH]1)C(C)C (single isomer, unassigned) [Compound 510] ?
Data returned: 9.20

Data request: Find the measured pIC50: item COC(=O)NC(C(=O)N1CCCC1c1ncc(-c2cc(F)c3c(c2)OC(c2cnc(C4CCCC4)s2)n2c-3cc3cc(-c4cnc(C5CC6CC6N5C(=O)C(NC(=O)OC)C(C)C)[nH]4)ccc32)[nH]1)C(C)C (single isomer, unassigned) [Compound 319] , target or system HCV replicon 1AY93H.
Data returned: 11.54

Data request: Item: COC(=O)N[C@H](C(=O)N1CCC[C@H]1c1ncc(-c2cc(F)c3c(c2)OC(c2cnc(CC4CC4)s2)n2c-3cc3cc(-c4cnc([C@@H]5CCCN5C(=O)[C@@H](NC(=O)OC)C(C)C)[nH]4)ccc32)[nH]1)C(C)C (single isomer, unassigned) [Compound 509] Test system: HCV replicon 1AY93H Read-out: pIC50 Value: ?
Data returned: 10.85

Data request: Recall the recorded pIC50 for COC(=O)NC(C(=O)N1CCC[C@H]1c1ncc(-c2ccc3c(c2)cc2n3C(c3cnc(CC4CC4)s3)Oc3cc(-c4cnc([C@@H]5CCCN5C(=O)[C@@H](NC(=O)OC)C(C)C)[nH]4)cc(F)c3-2)[nH]1)C1CCOC(C)(C)C1 (single isomer, unassigned) with HCV replicon 1AY93H and state it.
Data returned: 9.24

Data request: Give pIC50 (HCV replicon 1AY93H) of the following molecule: COC(=O)NC(C(=O)N1[C@@H]2C[C@@H]2C[C@H]1c1ncc(-c2ccc3c(c2)cc2n3C(c3cnc(CC(C)C)s3)Oc3cc(-c4cnc([C@@H]5CCCN5C(=O)[C@@H](NC(=O)OC)C(C)C)[nH]4)cc(F)c3-2)[nH]1)C1CCOC(C)(C)C1 (single isomer, unassigned) [Compound 438]
Data returned: 11.40

The reported numbers originate from patent US9555038B2.
